- Test system: Saccharomyces cerevisiae
- Assay procedure: protein stability index of tFT-peptide fusion (C-terminal peptide) (PSI (0-1 scale)); higher = more stable (slower turnover)
- Recorded conditions: genetic background: das1 deletion; temperature: 30 C
# label = Criterion met if protein stability index >= 0.7 else Criterion not met

Could you tell me if the measured protein stability index of LADAGHLWHSIT [YNL120C C-terminal 12 aa] reaches 0.7 or more? Criterion met

Quick check: does AYQIRQEVLQSL [SGA1 C-terminal 12 aa] have protein stability index greater than or equal to 0.7? Criterion not met

Decide: protein stability index of IKDAIKNGTGLL [MET31 C-terminal 12 aa] >= 0.7? Criterion not met

* * *

- Tested on: Saccharomyces cerevisiae
- Assay procedure: protein stability index of tFT-peptide fusion (C-terminal peptide) (PSI (0-1 scale)); higher = more stable (slower turnover)
- Recorded conditions: genetic background: das1 deletion; temperature: 30 C
Output true (1) for protein stability index not less than 0.7; output false (0) otherwise.

Form field: protein stability index at least 0.7? Entry: TSDHLFVVFFFW [YDL034W C-terminal 12 aa] false (0)

API: above_or_equal(metric=protein stability index, cutoff=0.7) for item DQLLALYEDGLL [AHC2 C-terminal 12 aa] true (1)

Kindly determine if protein stability index recorded for TDIEPSAKRQKK [RPF2 C-terminal 12 aa] is above or exactly 0.7. true (1)

Hello, I need to know if TAPLIQRKNKKN [RPN8 C-terminal 12 aa] has measured protein stability index not below 0.7. Thanks! true (1)

Is reported protein stability index greater than or equal to 0.7 here: PLHFQLIWLPIF [YML099W-A C-terminal 12 aa] false (0)

Determine whether this sequence has protein stability index no lower than 0.7: DEEEEIEPEVKA [SBA1 C-terminal 12 aa] false (0)

* * *

- System: Saccharomyces cerevisiae
- Assay procedure: protein stability index of tFT-peptide fusion (C-terminal peptide) (PSI (0-1 scale)); higher = more stable (slower turnover)
- Recorded conditions: genetic background: cdc53-1; temperature: 37 C
protein stability index vs 0.6: at or above is satisfied, below is not satisfied.

Answer whether protein stability index of `CLEHLVYCRLAS` is greater than or equal to 0.6. satisfied

Decide: is the reported value of protein stability index for `GIVSGEGAVGVG` equal to or greater than 0.6? not satisfied

Is protein stability index for `YAFSTCTILIRF` at or above 0.6? not satisfied

hey, is protein stability index for this one >= 0.6? `CHFLLHYVFLLS` not satisfied

Assess whether reported protein stability index for `FCFLLLSWAFWV` sits at 0.6 or higher. not satisfied

Could you please find out whether `SGRAWRLRMHVI` has protein stability index that meets 0.6 or exceeds it? satisfied

Textbook exercise: given the entry `RNTLLFKRILHI` , state whether its protein stability index is greater than or equal to 0.6. satisfied

Evaluate `FVVLVFMLGSVC` : protein stability index at minimum 0.6? not satisfied

Could you tell me if the measured protein stability index of `FYIRFYVYSWLF` reaches 0.6 or more? not satisfied

Confirm if protein stability index reported for the sequence `CYRRCQAFLVLV` is 0.6 or above. not satisfied

Does the sequence `GVVWPLGWVWVE` have recorded protein stability index that is 0.6 or more? satisfied

Does the reported protein stability index for `GELPGELYKFWL` fall at or above the 0.6 mark? satisfied

Please check the record `NNQIQKKMYQTN` and state if its protein stability index is at or above 0.6. satisfied

Please indicate if the recorded protein stability index for `FFLVILSWWVGE` meets or exceeds 0.6. not satisfied

// inclusive: protein stability index at least 0.6? input: `FLSRVVLVVLLV` not satisfied

Entry `GRGLRVCWVWSG` : is its protein stability index no less than 0.6? satisfied
